Items are presented alongside their recorded melting point.
Quantity name: melting point

| Compound | Quantity name | Result |
| --- | --- | --- |
| CCC(CC)c1ccc(Cl)c2nc3n(c12)CCCCN3c1cccc2c1OC(F)(F)O2 | melting point | 156 to 158 °C |
| CCC(OC)c1cccc2nc3n(c12)CCCN3c1ccc(Cl)cc1Cl (stereo not drawn) | melting point | 151 to 153 °C |
| CCC(CC)c1ccc(Cl)c2nc3n(c12)CCN3C(=O)c1c(C)cc(C)cc1C | melting point | 234 to 236 °C |
| CCC(CC)c1ccc(Cl)c2nc3n(c12)CCCCN3c1cnc(N2CCCC2)cc1C | melting point | 160 to 161 °C |
| COc1ccc(N2CCCn3c2nc2c(Cl)ccc(C(OCC(F)(F)F)C4CC4)c23)c(C)n1 (stereo not drawn) | melting point | 158 to 160 °C |
| CCN(CC)c1cccc2nc3n(c12)CC(OC)CCN3c1ccc(Cl)cc1Cl (stereo not drawn) | melting point | 120 to 122 °C |
| OC(c1ccc(Cl)c2nc3n(c12)CCCN3c1ccc(Cl)cc1C(F)(F)F)C1CC1 (stereo not drawn) | melting point | 224 to 225 °C |
| CCN(CC)c1cccc2nc3n(c12)CCCN=C3c1ccc(Cl)cc1Cl | melting point | 93 to 94 °C |
| OC(c1ccc(Cl)c2nc3n(c12)CCCN3c1ccc(Cl)cc1Cl)C1CC1 (stereo not drawn) | melting point | 223 to 224 °C |
| CCCC(O)(CCC)c1ccc(Cl)c2nc3n(c12)CCCN3c1ccc(Cl)cc1Cl | melting point | 133 to 135 °C |
| COc1nc(C)c(N2CCCn3c2nc2c(Cl)ccc(C(OCC(F)(F)F)C4CC4)c23)c(C)n1 (stereo not drawn) | melting point | 225 to 227 °C |
| COc1ccc(N2CCCn3c2nc2c(Cl)ccc(C(OCC(F)F)C4CC4)c23)c(C)n1 (stereo not drawn) | melting point | 124 to 126 °C |
| Cc1cc(Cl)cc(Cl)c1N1CCn2c1nc1c(Cl)ccc(C(O)(C3CC3)C3CC3)c12 | melting point | 193 to 196 °C |
| CCC(OC(C)=O)c1ccc(Cl)c2nc3n(c12)CCCN3c1ncc(Cl)cc1Cl (stereo not drawn) | melting point | 157 to 159 °C |
| CC(=O)OC(c1ccc(Cl)c2nc3n(c12)CCCN3c1ccc(Cl)cc1Cl)C1CC1 (stereo not drawn) | melting point | 208 to 210 °C |

src = patent US8785460B2
